Origin of measurements: ChEMBL document CHEMBL1159065

# measurementProtocol: Partition coefficient, log P by RP-HPLC
# Type: physicochemical
# conditionNotes: octanol/water
Reported values of logP for individual entries
Write the number on its own, no unit after it.

[[record]]
moleculesmiles = "CC(=O)N(O)CCCCCNC(=O)CCC(=O)N(O)CCCCCNC(=O)CCC(=O)N(O)CCCCCNC(=O)Cn1ccc(=O)c(O)c1C"
parametermeasured = "logP"
result = -1.16


For record CC(=O)N(O)CCCCCNC(=O)CCC(=O)N(O)CCCCCNC(=O)CCC(=O)N(O)CCCCCNC(=O)COc1ccc(C)cc1 the listed logP is 0.93

For record CC(=O)N(O)CCCCCNC(=O)CCC(=O)N(O)CCCCCNC(=O)CCC(=O)N(O)CCCCCNC(=O)C12CC3CC(C)(CC(C)(C3)C1)C2 the listed logP is 1.95

For record CC(=O)N(O)CCCCCNC(=O)CCC(=O)N(O)CCCCCNC(=O)CCC(=O)N(O)CCCCCNC(=O)C12CC3CC(CC(C3)C1)C2 the listed logP is 1.29

For record CC(=O)N(O)CCCCCNC(=O)CCC(=O)N(O)CCCCCNC(=O)CCC(=O)N(O)CCCCCNC(=O)CC12CC3CC(CC(C3)C1)C2 the listed logP is 1.47

For record CC(=O)N(O)CCCCCNC(=O)CCC(=O)N(O)CCCCCNC(=O)CCC(=O)N(O)CCCCCNC(=O)c1ccc(-n2nc(-c3ccccc3O)nc2-c2ccccc2O)cc1 the listed logP is 3.02

For record CC(=O)N(O)CCCCCNC(=O)CCC(=O)N(O)CCCCCNC(=O)CCC(=O)N(O)CCCCCNC(=O)C12CC3CC(CC(O)(C3)C1)C2 the listed logP is -0.11
